meta.source: patent US11584714B2

Target: UniProtKB O00187
Sequence (O00187 445-686): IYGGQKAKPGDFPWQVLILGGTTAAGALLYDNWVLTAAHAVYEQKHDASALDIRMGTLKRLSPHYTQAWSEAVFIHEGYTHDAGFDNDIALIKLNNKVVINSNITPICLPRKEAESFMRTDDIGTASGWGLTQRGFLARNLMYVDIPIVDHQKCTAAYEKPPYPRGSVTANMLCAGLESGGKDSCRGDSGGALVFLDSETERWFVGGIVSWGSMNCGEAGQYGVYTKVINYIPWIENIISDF
Assay: biochemical
Assay type: biochemical
Counter-ions that a name gives are not always drawn.
REPORTED ENDPOINT: Ki

// known answers, use as guide
COMPOUND: C[C@H](NC(=O)[C@H](N)CCc1ccccc1)C(=O)NCc1cc(Cl)ccc1CO
Ki: 10 to 25 µM
//
COMPOUND: CCc1cccc(-c2nc3cc(C(=N)N)ccc3[nH]2)n1 [compound 2008, dihydrochloride]
Ki: > 25 µM
//
COMPOUND: Cc1nc(N)ccc1CNC(=O)[C@H](C)NC(=O)[C@@H]1C[C@@H](Cc2ccccc2)CN1
Ki: 10 to 25 µM

Batch lookup, Ki per entry.
1. Cc1nc(N)ccc1CNC(=O)[C@H](C)NC(=O)[C@@H](CCc1ccccc1)NCc1ccc(Cl)cc1
2. C[C@H](NC(=O)[C@H]1C[C@H](c2ccccc2)CN1)C(=O)NCc1cc(Cl)c2[nH]cnc2c1 [compound 1417, Trifluoroacetate salt]
3. CC(C)COC(=O)NC(=N)c1ccc(CNC(=O)[C@H](C)NC(=O)[C@H]2C[C@H](c3ccccc3)CN2)cc1
4. C[C@H](NC(=O)[C@H]1C[C@H](c2ccccc2)CN1)C(=O)NCc1cc(Cl)ccc1O
5. C[C@H](NC(=O)[C@H]1C[C@H](c2ccccc2)CN1)C(=O)NCc1cc(Cl)cc(C(N)=O)c1 [compound 1387, Trifluoroacetate salt]
6. CCOc1ccnc(-c2nc3cc(C(=N)N)ccc3[nH]2)c1 [compound 2012, dihydrochloride]
7. N=C(N)c1ccc2[nH]c(-c3ccc4ccccc4n3)nc2c1 [compound 2013, dihydrochloride]
8. C[C@H](NC(=O)[C@H]1C[C@H](c2ccccc2)CN1)C(=O)NCc1cc(Cl)cnc1N [compound 1358, Di-trifluoroacetate salt]

1. 0.5 to 2.5 µM
2. 0.5 to 2.5 µM
3. 2.5 to 10 µM
4. 0.5 to 2.5 µM
5. 2.5 to 10 µM
6. > 25 µM
7. > 25 µM
8. 0.5 to 2.5 µM

The following compounds each have a reported value; give each one's Ki.
1. C[C@H](NC(=O)[C@H]1C[C@H](c2ccccc2)CN1)C(=O)NCc1cc(O)cc(Cl)c1 [compound 1364, Hydrochloride]
2. C[C@H](NC(=O)[C@H]1C[C@H](c2ccccc2)CN1)C(=O)NCc1ccc(C(=N)NC(=O)OCc2ccccc2)cc1
3. N=C(N)c1ccc2[nH]c(-c3nc4ccccc4[nH]3)nc2c1 [compound 2009, dihydrochloride]
4. Cc1nc(N)ccc1CNC(=O)[C@H](C)NC(=O)[C@H]1C[C@H](c2ccccc2)CCN1 [compound 1308, Dihydrochloride]
5. C[C@H](NC(=O)[C@H]1C[C@H](Cc2ccc(F)c(Cl)c2)CN1CC(=O)O)C(=O)NCc1cnc2c(c1)c(Cl)cn2C [compound 1484, Trifluoroacetate salt]
6. C[C@H](NC(=O)[C@H](N)CCc1ccccc1)C(=O)NCc1cccnc1N [compound 1346, Dihydrochloride]
7. Cc1cc(CNC(=O)[C@H](C)NC(=O)[C@H](N)CCc2ccccc2)cnc1N

1: 0.5 to 2.5 µM; 2: 2.5 to 10 µM; 3: > 25 µM; 4: 0.5 to 2.5 µM; 5: 0.5 to 2.5 µM; 6: 10 to 25 µM; 7: 0.5 to 2.5 µM
